target desc: Recombinant human factor D (Homo sapiens (Human))
assay summary: Human Complement Factor D Assay: Method 1
Type: biochemical
protocol conditions: 10 nM recombinant human factor D, substrate Z-Lys-thiobenzyl, fluorescence readout, read-out: IC50 Factor D inhibition
pIC50: −log10 of the molar value.
Outcome label depends on pIC50 relative to 7: at/above gives true (1), below gives false (0).

Answered examples (5):
[[record]]
compound = "CC(=O)c1nn(CC(=O)N2[C@@H]3C[C@@H]3C[C@H]2C(=O)NCC(F)=C(C)C)c2ccc(OCc3ncccn3)cc12 [Example 16]"
target_desc = "Recombinant human factor D (Homo sapiens (Human))"
class_name = "true (1)"

[[record]]
compound = "CC(C)=C(F)[C@H](C)NC(=O)[C@@H]1C[C@H]2C[C@H]2N1C(=O)Cn1nc(C(N)=O)c2ccccc21 [Example 21]"
target_desc = "Recombinant human factor D (Homo sapiens (Human))"
class_name = "false (0)"

[[record]]
compound = "CO[C@H]1[C@@H](C(=O)NCC(F)=C(C)C)N(C(=O)Cn2nc(C(N)=O)c3ccccc32)C[C@@H]1F [Example 8]"
target_desc = "Recombinant human factor D (Homo sapiens (Human))"
class_name = "true (1)"

[[record]]
compound = "CC(=O)c1nn(CC(=O)N2[C@@H]3C[C@@H]3C[C@H]2C(=O)NCC(F)=C(C)C)c2cnccc12 [Example 13]"
target_desc = "Recombinant human factor D (Homo sapiens (Human))"
class_name = "true (1)"

[[record]]
compound = "CC(C)=C(F)CNC(=O)[C@@H]1C[C@@H](F)CN1C(=O)Cn1nc(C(N)=O)c2ccncc21 [Example 3]"
target_desc = "Recombinant human factor D (Homo sapiens (Human))"
class_name = "false (0)"


Now examine the next entry.
Dear colleague, could you confirm whether CC(C)=C(F)CNC(=O)[C@@H]1C[C@H]2C[C@H]2N1C(=O)Cn1nc(C(N)=O)c2cc(C)nc(C)c21 [Example 9] has pIC50 at or above 7?
false (0)

###

target desc: Recombinant human factor D (Homo sapiens (Human), UniProt P00746)
Sequence (P00746 26-253): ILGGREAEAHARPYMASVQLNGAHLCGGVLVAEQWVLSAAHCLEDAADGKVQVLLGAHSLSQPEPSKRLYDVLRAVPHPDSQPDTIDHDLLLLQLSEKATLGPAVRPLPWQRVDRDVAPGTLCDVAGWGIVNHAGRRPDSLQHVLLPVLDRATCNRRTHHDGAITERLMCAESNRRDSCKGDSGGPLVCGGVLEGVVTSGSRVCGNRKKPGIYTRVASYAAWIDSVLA
assay summary: Human Complement Factor D Assay: Method 1
protocol conditions: 10 nM recombinant human factor D, substrate Z-Lys-thiobenzyl, fluorescence readout, read-out: IC50 Factor D inhibition
Kindly state log10 IC50 for each of the entries shown.
log10 IC50, nM

Please review the following examples before continuing.
[[record]]
molecule = "CC(=O)c1nn(CC(=O)N2[C@@H]3C[C@@H]3C[C@H]2C(=O)NCC(F)=C(C)C)c2ccccc12 [Example 11]"
reported_property = "log10 IC50"
endpoint_result = 1.28

[[record]]
molecule = "CC(C)=C(F)C(C)NC(=O)[C@@H]1C[C@H]2C[C@H]2N1C(=O)Cn1nc(C(N)=O)c2ccccc21 (stereo partly drawn) [Example 19]"
reported_property = "log10 IC50"
endpoint_result = 0.85

[[record]]
molecule = "CCc1cc2c(C(N)=O)nn(CC(=O)N3[C@@H]4C[C@@H]4C[C@H]3C(=O)NCC(F)=C(C)C)c2cn1 [Example 15]"
reported_property = "log10 IC50"
endpoint_result = 1.63

[[record]]
molecule = "NC(=O)c1nn(CC(=O)N2[C@@H]3C[C@@H]3C[C@H]2C(=O)NCC(F)=C2CCCC2)c2ccccc12 [Example 17]"
reported_property = "log10 IC50"
endpoint_result = 2.11

[[record]]
molecule = "CC(C)=C(F)CNC(=O)[C@@H]1C[C@@H](F)CN1C(=O)Cn1nc(C(N)=O)c2ccccc21 [Example 7]"
reported_property = "log10 IC50"
endpoint_result = 1.75


Recombinant human factor D (Homo sapiens (Human), UniProt P00746) / log10 IC50 / CC(C)=C(F)CNC(=O)[C@@H]1C[C@H]2C[C@H]2N1C(=O)Cn1nc(C(N)=O)c2ccnc(C)c21 [Example 14] : value?
1.80
